Origin of the recorded values: paper PMC5540273

# System: NEK3
# recorded.conditions: concentration: 1 μM, replicates: in singlicate; n = 1;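 also: KINOMEscan kinase panel screen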
Kindly state %Inh for each of the entries shown.
Answers are plain numbers, in %.

Example entries begin here.
{"compound": "COc1cccc(NC(=O)Nc2ccc(C)c(-c3ccc(C(=O)Nc4ccncc4)cc3)c2)c1", "%Inh (%)": 7}
{"compound": "COc1ccc(Nc2nccc(N3CCC(NC(=O)C(C)c4ccc(Cl)cc4)C3)n2)cc1 (centres unmarked)", "%Inh (%)": 0}
{"compound": "Cc1c(Cn2c(C)c(C)n3c(=O)cc(N4CCOCC4)nc23)cccc1C(F)(F)F", "%Inh (%)": 0}
{"compound": "COc1ccc2cc(-c3nc(-c4ccccc4C(C)C)[nH]c3-c3ccncc3)ccc2c1", "%Inh (%)": 0}

Okay, now this compound:
Request body: readout %Inh, system NEK3, query CNc1cc(-c2ccc3c(N)n[nH]c3c2)nc(N)n1 . Return the value.
2

----------
Would you mind telling me the reported %Inh of each entry?
# Tested on: MEK4
# Construct: gene MAP2K4
# recorded.conditions: concentration: 1 μM, replicates: in singlicate; n = 1
One number for each entry, in %.

// below: answered compounds
{"compound": "CS(=O)(=O)Cc1ccc(Nc2nccc(-c3c(-c4cccc(NC(=O)C5CCCCC5)c4)nn4ncccc34)n2)cc1", "output.unit": "%", "%Inh": 16}
{"compound": "O=c1cc(N2CCOCC2)nc2n(Cc3cccc(Cl)c3Cl)c3ccccc3n12", "output.unit": "%", "%Inh": 34}
{"compound": "CC(=O)c1c(C)c2cnc(Nc3ccc(N4CCNCC4)cn3)nc2n(C2CCCC2)c1=O", "output.unit": "%", "%Inh": 0}
{"compound": "Cc1ccc(NC(=O)Nc2ccccc2F)cc1-c1ccc(C(=O)Nc2ccncc2)cc1", "output.unit": "%", "%Inh": 26}
{"compound": "CC(=O)c1c(C)c2cnc(Nc3ccn(C)n3)nc2n(C2CCCC2)c1=O", "output.unit": "%", "%Inh": 0}

Report %Inh for each item below.
1. COc1ccc2cc(-c3nc(-c4ccccc4C(C)C)[nH]c3-c3ccncc3)ccc2c1
2. CCn1c(-c2ccccc2)nc2cnccc21
3. Cc1ccc(NC(=O)c2ccc(Cl)cc2)cc1-c1ccc(C(=O)Nc2ccncc2)cc1
4. CCCCc1nn2ncccc2c1-c1ccnc(NC2CC2)n1
5. CNc1nc(-c2ccc3c(N)n[nH]c3c2)cc(N2C[C@@H](C(=O)NC3CCCCC3)OC[C@H]2C)n1
6. COC(=O)c1cccc(NC(=O)NC2CCN(c3ccnc(Nc4ccc(F)cc4)n3)C2)c1 (stereo not drawn)
7. FC(F)(F)c1ccccc1-c1cc(-c2c[nH]nc2-c2ccccn2)ccn1

1: 65; 2: 25; 3: 3; 4: 7; 5: 11; 6: 36; 7: 16

Look up %Inh for the entries below, preserving their order.
1. COc1cccc(NC(=O)Nc2ccc(C)c(-c3ccc(C(=O)Nc4ccncc4)cc3)c2)c1
2. Cn1cnc2c(N)ncnc21

42
0

Quick batch: %Inh for everything below.
1. CN1c2ccc(-c3ccc(C(N)=O)cc3)cc2-c2[nH]ncc2S1(=O)=O
2. Fc1ccc(-c2nc[nH]c2-c2ccncc2)cc1
3. Cl.Cl.Cl.N#Cc1ccc(CCNc2nccc(-c3cccc(CN4CCNCC4)c3)n2)cc1
4. CNc1nc(-c2ccc3c(N)n[nH]c3c2)cc(N2C[C@@H](C(=O)Nc3ccccc3)CC[C@H]2C)n1

1: 0; 2: 6; 3: 20; 4: 7

----------
# Tested on: PYK2
# Construct: gene PTK2B
# recorded.conditions: concentration: 1 μM, replicates: in singlicate; n = 1
measurement.name: %Inh
Report field: quantity (unit follows the number).

{"compound": "CN1c2ccc(-c3ccc(C(N)=O)cc3)cc2-c2[nH]ncc2S1(=O)=O", "measurement.name": "%Inh", "recorded.result": "0%"}
{"compound": "CS(=O)(=O)CCNCc1nc(-c2ccc3ncnc(Nc4ccc(OCc5ccccc5)c(Cl)c4)c3c2)cs1.Cl", "measurement.name": "%Inh", "recorded.result": "1%"}
{"compound": "Cc1ccc(NC(=O)c2ccc(Cl)cc2)cc1-c1ccc(C(=O)Nc2ccncc2)cc1", "measurement.name": "%Inh", "recorded.result": "18%"}
{"compound": "c1ccc(-c2ccnc3[nH]ccc23)cc1", "measurement.name": "%Inh", "recorded.result": "5%"}
{"compound": "CCn1c(-c2ccccc2)nc2cnccc21", "measurement.name": "%Inh", "recorded.result": "20%"}
{"compound": "Cc1c(Cn2c(C)c(C)n3c(=O)cc(N4CCOCC4)nc23)cccc1C(F)(F)F", "measurement.name": "%Inh", "recorded.result": "10%"}
{"compound": "Cc1nccc(-c2c(-c3ccc(F)cc3)ncn2CCCN2CCOCC2)n1.Cl", "measurement.name": "%Inh", "recorded.result": "21%"}
{"compound": "COc1ccc(CSc2nnc(-c3ccc4c(c3)CCO4)o2)cc1", "measurement.name": "%Inh", "recorded.result": "0%"}

Give %Inh for all compounds that follow.
1. COc1ccc(Nc2nccc(N3CCC(NC(=O)c4cc5ccccc5s4)C3)n2)cc1 (stereo not shown)
2. Cc1ccc(NC(=O)Nc2ccccc2)cc1-c1ccc(C(=O)Nc2ccncc2)cc1
3. CCn1c(-c2c(N)noc2C)nc2cnccc21
4. Cn1cnc2c(N)ncnc21

0%
17%
2%
0%

Would you mind telling me what %Inh value was observed for CNCc1ccc2nc(NC(=O)c3ccc(C(C)(C)C)cc3)cn2c1 ?
7%

----------
# Tested on: RAF1
# recorded.conditions: concentration: 1 μM, replicates: in singlicate; n = 1
Hi! Just check whether %Inh is below 4%. Below gives Satisfied, equal or above gives Not satisfied.

Example cases with answers are listed next.
{"compound": "Cc1ccccc1Cn1ccn2c(=O)cc(N3CCOCC3)nc12", "tested.on": "RAF1", "class.assignment": "Not satisfied"}
{"compound": "CS(=O)(=O)CCNCc1nc(-c2ccc3ncnc(Nc4ccc(OCc5ccccc5)c(Cl)c4)c3c2)cs1.Cl", "tested.on": "RAF1", "class.assignment": "Not satisfied"}
{"compound": "O=C(Nc1n[nH]c2nc(-c3cccs3)c(Br)cc12)C1CC1", "tested.on": "RAF1", "class.assignment": "Satisfied"}
{"compound": "Nc1nccc(-c2c(-c3ccc(F)cc3)ncn2C2CCN(Cc3ccccc3)CC2)n1", "tested.on": "RAF1", "class.assignment": "Satisfied"}
{"compound": "Cc1ccc(NC(=O)Nc2ccc(Cl)c(C(F)(F)F)c2)cc1-c1ccc(C(=O)Nc2ccncc2)cc1", "tested.on": "RAF1", "class.assignment": "Not satisfied"}
{"compound": "Cc1cnc(N)c(/C=C/c2cncc(C(=O)NCCc3ccc(Cl)cc3Cl)c2)c1.Cl", "tested.on": "RAF1", "class.assignment": "Satisfied"}
{"compound": "CCn1c(-c2ccccc2)nc2cnccc21", "tested.on": "RAF1", "class.assignment": "Satisfied"}
{"compound": "COc1cccc(CNC(=O)NC2CCN(c3ccnc(Nc4ccc(F)cc4)n3)C2)c1 (stereo not shown)", "tested.on": "RAF1", "class.assignment": "Not satisfied"}
{"compound": "O=C(Nc1n[nH]c2nc(-c3cccs3)c(Br)cc12)C1CCCC1", "tested.on": "RAF1", "class.assignment": "Not satisfied"}
{"compound": "O=c1cc(N2CCOCC2)nc2n(Cc3cccc(Cl)c3Cl)c3ccccc3n12", "tested.on": "RAF1", "class.assignment": "Not satisfied"}

Strictly below 4% in %Inh? Cc1ccc(NC(=O)Nc2ccc(Cl)cc2)cc1-c1ccc(C(=O)Nc2ccncc2)cc1
Not satisfied

Now the same for COc1nccc(-c2c(-c3ccc(F)cc3)ncn2CCCN2CCOCC2)n1
Not satisfied

Next compound: Cl.Cl.Cl.N#Cc1ccc(CCNc2nccc(-c3cccc(CN4CCNCC4)c3)n2)cc1
Not satisfied

Let us now turn to Nc1cccc(-c2ccc3c(N)n[nH]c3c2)n1
Satisfied

----------
# System: PHKG1
# recorded.conditions: concentration: 1 μM, replicates: in singlicate; n = 1
measurement.name: %Inh (%)
Give bare numbers, in %.

{"compound": "COC(=O)c1cccc(NC(=O)NC2CCN(c3ccnc(Nc4ccc(OC)cc4)n3)C2)c1 (centres unmarked) [GSK1379746]", "%Inh, %": 19}

Each compound below has a reported value. Please supply its %Inh.
1. COc1ccc2cc(-c3nc(-c4ccccc4C(C)C)[nH]c3-c3ccncc3)ccc2c1 [SB-660566]
2. Cc1ccc(NC(=O)Nc2ccccc2)cc1-c1ccc(C(=O)Nc2ccncc2)cc1 [GSK1398471]

1. 0
2. 0

Give %Inh for all compounds that follow.
1. COc1ccc(Nc2nccc(N3CCC(NC(=O)c4cc5ccccc5s4)C3)n2)cc1 (centres unmarked) [GSK1379738]
2. CS(=O)(=O)Cc1ccc(Nc2nccc(-c3c(-c4cccc(NC(=O)C5CCCCC5)c4)nn4ncccc34)n2)cc1 [GSK350559]
3. COC(=O)C(NC(=O)NC1CCN(c2ccnc(Nc3ccc(F)cc3)n2)C1)c1ccccc1 (centres unmarked) [GSK1379712]
4. O=C1NC(=O)C(c2ccc(Cl)cc2)=C1Nc1ccc(O)cc1 [SB-340867]

1: 0; 2: 4; 3: 0; 4: 0

# batch size: 7; output %Inh per entry
1. COc1ccc(CSc2nnc(-c3ccc4nccn4c3)o2)cc1C(F)(F)F
2. NS(=O)(=O)c1cccc(N/C=C2\C(=O)Nc3ccc(S(=O)(=O)Cc4c(Cl)cccc4Cl)cc32)c1 [GSK398099]
3. COc1nccc(-c2c(-c3ccc(F)cc3)ncn2CCCN2CCOCC2)n1 [SB-282852]
4. Nc1ncnc2occ(-c3ccc4c(c3)CCN4C(=O)Cc3cc(F)ccc3F)c12 [GSK2645446]
5. CC(=O)c1c(C)c2cnc(Nc3ccn(C)n3)nc2n(C2CCCC2)c1=O
6. COc1ccc(Nc2nccc(N3CCC(NC(=O)C(C)c4ccc(Cl)cc4)C3)n2)cc1 (centres unmarked) [GSK1379735]
7. CNc1nc(-c2ccc3c(N)n[nH]c3c2)cc(N2C[C@@H](C(=O)Nc3ccccc3)CC[C@H]2C)n1 [GSK2298859]

0
0
13
0
0
4
0
